assayedTarget: Human Neutrophil Elastase (human, UniProt P08246)
assayName: hNE inhibition assay of EPI-HNE-3 stored in unbuffered water at 4° C. for five months
measuredProperty: Ki

input: Give the measured Ki of EPI-HNE-3 (designed binder) AACNLPIVRGPCIAFFPRWAFDAVKGKCVLFPYGGCQGNGNKFYSEKECREYCGVP .
output: ~0.012 nM
